meta.source: patent US4424222A

assayed-target: muscarinic receptors (cerebral cortex)
assay-protocol: Receptor binding test (3H-N-methylscopolamine displacement), cerebral cortex
particulars: 0.3 n molar 3H-NMS, 30° C., 45 minutes, read-out: Receptor binding tests IC50, Cortex
Listed molecules paired with reported IC50

| item-smiles | IC50 / nM |
| --- | --- |
| CN1CCN(NC(=O)N2c3ccccc3C(=O)Nc3cccnc32)CC1 | 60 |
| CN1CCC(OC(=O)N2c3ccccc3C(=O)Nc3cccnc32)CC1 | 100 |
| CN1CCC(NC(=O)N2c3ccccc3C(=O)Nc3cccnc32)CC1 | 200 |

====

assay-protocol: Oxotremorine test: inhibition of salivation
Parameters: species or system albino rats (Crl:COBS-CD (SD) BR strain)
particulars: in vivo, iv; rat, i.v. 15 minutes before oxotremorine 0.083 mg/kg i.v.; double blind
// reported ED50 at 0.25 h per item
attribute-measured: ED50 at 0.25 h (mg/kg)

| item-smiles | attribute-measured | readout-unit | numeric-value |
| --- | --- | --- | --- |
| CN1CCN(NC(=O)N2c3ccccc3C(=O)Nc3cccnc32)CC1 | ED50 at 0.25 h | mg/kg | 0.056 |
| CN1CCC(NC(=O)N2c3ccccc3C(=O)Nc3cccnc32)CC1 | ED50 at 0.25 h | mg/kg | 0.42 |
| CN1CCC(OC(=O)N2c3ccccc3C(=O)Nc3cccnc32)CC1 | ED50 at 0.25 h | mg/kg | 0.85 |

====

assay-protocol: Mydriasis (effect on pupil size)
Set-up: species or system rats
particulars: in vivo, iv; rat, pupil size observed for 10 minutes; double blind
Collected ED50 at 10 min values appear next to each entry.

| item-smiles | readout-unit | ED50 at 10 min |
| --- | --- | --- |
| CN1CCC(OC(=O)N2c3ccccc3C(=O)Nc3cccnc32)CC1 | mg/kg | 0.13 |
| CN1CCC(NC(=O)N2c3ccccc3C(=O)Nc3cccnc32)CC1 | mg/kg | 0.139 |
| CN1CCN(NC(=O)N2c3ccccc3C(=O)Nc3cccnc32)CC1 | mg/kg | 0.07 |
